Experiment: Pharmacokinetic parameters after i.v. administration in rats
Format: in vivo
Conditions: plasma, iv, rat, dose 0.3 mg/kg (SEQ ID NO. 19), 1 mg/kg (SEQ ID NO. 24), read-out: CLtotal
Square brackets hold non-standard residues; d marks the D form. Peptide text beside a SMILES is read from it. Phe(4-Cl) = N[C@@H](Cc1ccc(Cl)cc1)C(=O)O; Aoc = NCCCCCCCC(=O)O; Sar = CNCC(=O)O
parameter measured: clearance (mL/min/kg)
The reply should be a number in mL/min/kg, with the unit left off.

Ask: Any idea what clearance was measured for CC(C)C[C@H](NC(=O)[C@H](Cc1ccc(Cl)cc1)NC(=O)CN(C)C(=O)[C@@H](N)Cc1ccc(O)cc1)C(=O)N[C@@H](CCCNC(=N)N)C(=O)N[C@H](CCCNC(=N)N)C(=O)NCCCCCCCC(N)=O [SEQ ID NO. 24] (H-Y[Sar][Phe(4-Cl)]LR[dR][Aoc]-NH2) ?
Result: 26.3
